# method.notes: amyloid nucleation score (Sup35N fusion, yeast selection) (log enrichment); library NNK2; higher = more nucleation; inactive = no reads after selection;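 also: zero at mode of non-aggregating sequences after 7 days selection at 30°C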
metric.name: amyloid nucleation score
Keep it simple and answer with nothing but the number.

Worked set:
HEGNKRARYLALLSEIYFQW
4.65
FTRSWFLYTT
3.85
GNHSAVAPS
-0.677
IWRNSANCGASDEAVDSLR
0.53
RLGIFYKVDLSLVGKVPNST
2.79

Prompt: Tell us which amyloid nucleation score value is on record for "TLNMNVSFPIRRAHIYEMLI"
Completion: 0.83

Prompt: Tell us which amyloid nucleation score value is on record for "FSNTYHFCISNYMWLNEVLM"
Completion: 1.36

Prompt: Tell us which amyloid nucleation score value is on record for "NVMSDYTFANTSITSCCY"
Completion: -1.26

Prompt: Tell us which amyloid nucleation score value is on record for "GFYIPRRAFS"
Completion: -1.13

Prompt: Tell us which amyloid nucleation score value is on record for "VGLFGWRGKEGF"
Completion: -0.033

Prompt: Tell us which amyloid nucleation score value is on record for "AVQAIITHQTLGKQVFFWFE"
Completion: 7.85

Prompt: Tell us which amyloid nucleation score value is on record for "IVVSRMETSIKTCYFVMFHS"
Completion: -0.421

Prompt: Tell us which amyloid nucleation score value is on record for "IIVGATKMLCCFHVMMVYAP"
Completion: 0.472

Prompt: Tell us which amyloid nucleation score value is on record for "KTAVSNVRCMY"
Completion: -0.227

Prompt: Tell us which amyloid nucleation score value is on record for "YFTSGNDDSVFDVYRSIWMV"
Completion: 2.91

Prompt: Tell us which amyloid nucleation score value is on record for "CFGIILVQGYMHA"
Completion: 3.6

----------
# method.notes: amyloid nucleation score (Sup35N fusion, yeast selection) (log enrichment); library NNK1; higher = more nucleation; inactive = no reads after selection
Would you please tag the item 1.0 when its amyloid nucleation score is -0.05 or above, and 0.0 when it is below?

CVFIHRSFHTLFSGRRVDYP
1.0
YFLFFFHVDCLRNASC
0.0
LLDMHYTLEWCTKCYTDKVQ
1.0

Prompt: Decide: is the reported value of amyloid nucleation score for "SLIRSMTISDNLIMWAGWTY" equal to or greater than -0.05?
Completion: 0.0

Prompt: Decide: is the reported value of amyloid nucleation score for "DKWLPIFTGGQLLSNLIFFC" equal to or greater than -0.05?
Completion: 1.0

Prompt: Decide: is the reported value of amyloid nucleation score for "LHYCTCSIRSIF" equal to or greater than -0.05?
Completion: 1.0

----------
# method.notes: amyloid nucleation score (Sup35N fusion, yeast selection) (log enrichment); library NNK1; higher = more nucleation; inactive = no reads after selection
metric.name: amyloid nucleation score
Keep it simple and answer with nothing but the number.

Worked set:
SLTVLCKVFFSCNQAGLLHG
0.17
PTHDILFVTDSLTAKANDMV
-0.189

Prompt: Tell us which amyloid nucleation score value is on record for "GGFSNFMMVCNVATFSSNQL"
Completion: 3.47

Prompt: Tell us which amyloid nucleation score value is on record for "FHRWLDMWSLRRDFIGYGLG"
Completion: 0.095

Prompt: Tell us which amyloid nucleation score value is on record for "GMRVMRYYLPRGNQKFGESR"
Completion: 0.823

Prompt: Tell us which amyloid nucleation score value is on record for "YCASFRINVIFV"
Completion: 3.79
